Test system: EFM-192A (Breast Carcinoma)
Test: combination Emax (second highest fraction inhibited in the dose matrix, 72 h); higher = more inhibition; extreme values may be limits of the assay
# maps each entry to its combination Emax

# COMPOUND, combination Emax
rows = [
    ("CN(CCO)CC[C@H](CSc1ccccc1)Nc1ccc(S(=O)(=O)NC(=O)c2ccc(N3CCC([C@@H](O)c4ccccc4-c4ccc(Cl)cc4)CC3)cc2)cc1S(=O)(=O)C(F)(F)F [AZD4320] + C1CN(CCC1(C(=O)N[C@@H](CCO)C2=CC=C(C=C2)Cl)N)C3=NC=NC4=C3C=CN4 [Capivasertib] (first compound max 1 µM, 7x7, partner max 3 µM)", 0.418),
    ("CCN(CCO)CCCOc1ccc2c(Nc3cc(CC(=O)Nc4cccc(F)c4)[nH]n3)ncnc2c1 [AZD2811] + C=CCn1c(=O)c2cnc(Nc3ccc(N4CCN(C)CC4)cc3)nc2n1-c1cccc(C(C)(C)O)n1 [AZD1775] (first compound max 1 µM, partner max 1 µM)", 0.239),
    ("Cc1c2c(nn1C)CSCc1cc(n(C)n1)CSc1cc(c3ccccc3c1)OCCCc1c(C(=O)O)n(C)c3c-2c(Cl)ccc13 [AZD5991] + C[C@@H]1COCCN1C2=NC(=NC(=C2)C3(CC3)[S@](=N)(=O)C)C4=C5C=CNC5=NC=C4 [AZD6738] (first compound max 1 µM, 7x7, partner max 10 µM)", 0.735),
]
